// provenance: patent US8003660B2

Listed below: Emax values for each entry.
- target_of_assay: M2 muscarinic receptor (Homo sapiens)
- Construct: expressed in transfected cells; host or cells: CHO (M2-CHO)
- test_details: Functional mobilization of intracellular calcium (FLIPR) in CHO cells expressing M2
- Format: cell-based
- experimental_conditions: CHO; 100% = maximum response obtained with the Carbachol control; read-out: M2 Efficacy

Check out these entries, answers already filled in.
{"molecule": "CC(=O)N1CCCC(C(=O)N[C@@H]2CCC3(CCN(CCC(C)(C)C)CC3)c3ccccc32)C1 (some centres unmarked)", "Emax": "< 25%"}
{"molecule": "CC(C)CCN1CCC2(CC[C@H](NC(=O)N(C)C)c3ccccc32)CC1", "Emax": "< 25%"}
{"molecule": "CC(C)(C)CCN1CCC2(CC[C@@H](NC(=O)C3CCCO3)c3ccc(F)cc32)CC1 (some centres unmarked)", "Emax": "25 to 100%"}

So what does the record say about Emax for CC(=O)N[C@H]1CCC2(CCN(CCC(C)CCC=C(C)C)CC2)c2ccccc21 (some centres unmarked) ? 25 to 100%

So what does the record say about Emax for CC(C)CCN1CCC2(CC[C@H](NC(=O)C3CC3)c3ccccc32)CC1 ? < 25%

So what does the record say about Emax for CCN(C(=O)c1cccnc1)[C@@H]1CCC2(CCN(CCC(C)(C)C)CC2)c2ccccc21 ? < 25%

So what does the record say about Emax for CCC(=O)N1CCCC(C(=O)N[C@@H]2CCC3(CCN(CCC(C)(C)C)CC3)c3ccccc32)C1 (some centres unmarked) ? < 25%

So what does the record say about Emax for CC(=O)N(C1CC1)C1CCC2(CCN(CCC(C)(C)C)CC2)c2ccccc21 (centres unmarked) ? < 25%

---

Listed below: EC50 values for each entry.
- target_of_assay: M2 muscarinic receptor (Homo sapiens, UniProt P08172)
- Sequence (P08172 whole entry): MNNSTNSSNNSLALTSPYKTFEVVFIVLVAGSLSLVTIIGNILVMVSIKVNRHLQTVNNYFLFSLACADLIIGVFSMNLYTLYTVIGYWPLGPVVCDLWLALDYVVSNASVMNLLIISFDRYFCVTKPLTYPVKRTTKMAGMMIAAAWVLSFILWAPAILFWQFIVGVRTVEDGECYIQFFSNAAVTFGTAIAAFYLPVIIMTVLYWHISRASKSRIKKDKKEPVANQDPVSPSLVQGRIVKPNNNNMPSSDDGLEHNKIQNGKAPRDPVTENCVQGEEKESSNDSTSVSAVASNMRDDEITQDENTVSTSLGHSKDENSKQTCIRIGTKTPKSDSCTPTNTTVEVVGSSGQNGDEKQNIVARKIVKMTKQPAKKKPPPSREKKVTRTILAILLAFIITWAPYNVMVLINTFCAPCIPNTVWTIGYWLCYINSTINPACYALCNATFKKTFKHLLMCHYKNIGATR
- test_details: Functional mobilization of intracellular calcium (FLIPR) in CHO cells expressing M2
- experimental_conditions: CHO cells expressing M2, FLIPR calcium

{"molecule": "CC(=O)CCC(=O)N[C@H]1CCC2(CCN(CCC(C)(C)C)CC2)c2ccccc21 [compound 18]", "measurement": "< 2 µM"}

So what does the record say about EC50 for CC(=O)N[C@H]1CCC2(CCN(CCC(C)CCC=C(C)C)CC2)c2ccccc21 (stereo partly shown) [compound 68] ? < 2 µM

So what does the record say about EC50 for CC(C)(C)CCN1CCC2(CC[C@@H](NC(=O)Cc3cccnc3)c3ccc(F)cc32)CC1 [compound 65] ? 2 to 5 µM

So what does the record say about EC50 for CCCCN1CCC2(CC[C@H](NC(C)=O)c3ccccc32)CC1 [compound 4] ? > 5 µM

So what does the record say about EC50 for CC(=O)N(C(C)C)[C@H]1CCC2(CCN(CCC(C)(C)C)CC2)c2cc(F)ccc21 [compound 86] ? > 5 µM

So what does the record say about EC50 for CCN(C(C)=O)[C@H]1CCC2(CCN(CCC(C)(C)C)CC2)c2cc(F)ccc21 [compound 77] ? 2 to 5 µM

So what does the record say about EC50 for CCn1cc(C(=O)N[C@H]2CCC3(CCN(CCC(C)(C)C)CC3)c3ccccc32)cn1 [compound 69] ? > 5 µM

So what does the record say about EC50 for CCN(C(=O)C1CCCO1)[C@H]1CCC2(CCN(CCC(C)(C)C)CC2)c2ccccc21 (stereo partly shown) [compound 39] ? > 5 µM

So what does the record say about EC50 for CC(C)[C@@H](C(=O)N[C@@H]1CCC2(CCN(CCC(C)(C)C)CC2)c2ccccc21)N1CCCC1=O [compound 126] ? > 5 µM

So what does the record say about EC50 for CC(C)(C)CCN1CCC2(CC[C@H](NS(C)(=O)=O)c3ccccc32)CC1 [compound 1] ? 2 to 5 µM

So what does the record say about EC50 for CC(=O)N(C)[C@H]1CCC2(CCN(CCC(C)C)CC2)c2ccccc21 [compound 184] ? > 5 µM

So what does the record say about EC50 for CC(C)(C)CCN1CCC2(CC[C@H](NC(=O)CC3CCOCC3)c3ccc(F)cc32)CC1 [compound 145] ? < 2 µM

So what does the record say about EC50 for CC(=O)N[C@H]1CCC2(CCN(CC(C)(C)C)CC2)c2ccccc21 [compound 66] ? > 5 µM

So what does the record say about EC50 for CC(=O)NCCC(=O)N[C@@H]1CCC2(CCN(CCC(C)(C)C)CC2)c2cc(F)ccc21 [compound 20] ? < 2 µM

So what does the record say about EC50 for CCN(C(=O)CC(F)(F)F)[C@H]1CCC2(CCN(CCC(C)(C)C)CC2)c2ccccc21 [compound 183] ? > 5 µM

So what does the record say about EC50 for Cn1cncc1C(=O)N[C@@H]1CCC2(CCN(CCC(C)(C)C)CC2)c2ccccc21 [compound 118] ? > 5 µM

---

- target_of_assay: M1 muscarinic receptor (Homo sapiens)
- Construct: expressed in transfected cells; host or cells: CHO (M1-CHO)
- Sequence (P11229 1-460): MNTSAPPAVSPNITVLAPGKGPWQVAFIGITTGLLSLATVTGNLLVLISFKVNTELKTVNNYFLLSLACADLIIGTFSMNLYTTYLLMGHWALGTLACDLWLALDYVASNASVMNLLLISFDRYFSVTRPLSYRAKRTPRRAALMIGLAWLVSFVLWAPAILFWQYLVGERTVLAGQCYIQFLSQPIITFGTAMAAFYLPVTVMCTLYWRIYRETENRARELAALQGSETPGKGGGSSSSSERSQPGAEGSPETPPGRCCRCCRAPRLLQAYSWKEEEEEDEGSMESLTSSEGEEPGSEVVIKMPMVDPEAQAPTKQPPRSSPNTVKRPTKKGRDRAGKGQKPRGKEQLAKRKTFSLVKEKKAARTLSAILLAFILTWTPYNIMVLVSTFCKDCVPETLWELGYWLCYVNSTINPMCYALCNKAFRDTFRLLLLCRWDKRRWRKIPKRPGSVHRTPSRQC
- test_details: Functional mobilization of intracellular calcium (FLIPR) in CHO cells expressing M1
- Format: cell-based
- experimental_conditions: CHO; 100% = maximum response obtained with the Carbachol control; read-out: M1 Efficacy
quantity_name: Emax

{"compound": "CC(C)CCN1CCC2(CC[C@H](NC(=O)C3CC3)c3ccccc32)CC1 [compound 125]", "measurement": "25 to 100%"}

So what does the record say about Emax for CC(C)(C)CCN1CCC2(CC[C@H](NC(=O)CCN3CCCC3=O)c3ccccc32)CC1 [compound 124] ? 25 to 100%

So what does the record say about Emax for CC(C)CCN1CCC2(CCCc3ccccc32)CC1 [compound 89] ? 25 to 100%

So what does the record say about Emax for CC(=O)NC(C(=O)N[C@@H]1CCC2(CCN(CCC(C)(C)C)CC2)c2ccccc21)C(C)C (stereo partly shown) [compound 87] ? < 25%

So what does the record say about Emax for CC(=O)N(C1CC1)C1CCC2(CCN(CCC(C)(C)C)CC2)c2ccccc21 (stereo not shown) [compound 122] ? 25 to 100%

So what does the record say about Emax for CN([C@H]1CCC2(CCN(CCC(C)(C)C)CC2)c2ccccc21)S(C)(=O)=O [compound 161] ? 25 to 100%

So what does the record say about Emax for CCC(=O)N[C@@H]1CCC2(CCN(CCC(C)(C)C)CC2)c2ccccc21 [compound 62] ? < 25%

So what does the record say about Emax for C[C@@H](C(=O)N[C@H]1CCC2(CCN(CCC(C)(C)C)CC2)c2ccccc21)N1CCCC1=O [compound 137] ? 25 to 100%

So what does the record say about Emax for CCN(C(=O)C1CCOC(C)(C)C1)[C@H]1CCC2(CCN(CCC(C)(C)C)CC2)c2ccccc21 (stereo partly shown) [compound 30] ? < 25%

So what does the record say about Emax for C[C@@H](C(=O)N[C@@H]1CCC2(CCN(CCC(C)(C)C)CC2)c2ccccc21)N1CCCC1=O [compound 146] ? 25 to 100%

So what does the record say about Emax for CCC(=O)N[C@@H]1CCC2(CCN(CCC(C)(C)C)CC2)c2cc(F)ccc21 [compound 11] ? 25 to 100%

So what does the record say about Emax for CC(C)(C)CCN1CCC2(CC[C@H](NC(=O)C3CC3)c3ccc(F)cc32)CC1 [compound 119] ? 25 to 100%

---

- target_of_assay: M4 muscarinic receptor (Homo sapiens, UniProt P08173)
- Construct: expressed in transfected cells; host or cells: CHO (M4-CHO)
- Sequence (P08173 whole entry): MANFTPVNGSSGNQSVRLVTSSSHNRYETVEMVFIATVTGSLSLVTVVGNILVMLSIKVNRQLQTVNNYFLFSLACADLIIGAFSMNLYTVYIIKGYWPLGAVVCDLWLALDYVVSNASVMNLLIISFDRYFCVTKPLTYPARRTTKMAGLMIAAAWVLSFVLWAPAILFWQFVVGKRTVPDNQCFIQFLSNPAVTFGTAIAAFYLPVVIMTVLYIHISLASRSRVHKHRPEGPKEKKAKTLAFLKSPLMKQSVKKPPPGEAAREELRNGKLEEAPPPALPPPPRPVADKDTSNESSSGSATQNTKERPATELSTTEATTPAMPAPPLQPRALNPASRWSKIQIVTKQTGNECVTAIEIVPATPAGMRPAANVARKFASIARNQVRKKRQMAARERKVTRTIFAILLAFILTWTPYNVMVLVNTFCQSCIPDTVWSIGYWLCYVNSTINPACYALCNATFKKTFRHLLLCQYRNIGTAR
- test_details: Functional mobilization of intracellular calcium (FLIPR) in CHO cells expressing M4
- Format: cell-based
- experimental_conditions: CHO; 100% efficacy = maximum response obtained with the Carbachol control
Listed below: Emax values for each entry.

{"substance_smiles": "CC(C)(C)CCN1CCC2(CC1)C[C@H](NC(=O)c1ccoc1)c1ccccc12", "Emax": "< 25%"}

So what does the record say about Emax for CC(C)(C)CCN1CCC2(CC[C@H](N3CCCCC3=O)c3ccc(F)cc32)CC1 ? 25 to 100%

So what does the record say about Emax for CCN(C(=O)CCNC(C)=O)[C@H]1CCC2(CCN(CCC(C)(C)C)CC2)c2ccccc21 ? 25 to 100%

So what does the record say about Emax for CCCC(=O)N[C@H]1CC2(CCN(CCC(C)C)CC2)c2ccccc21 ? < 25%
